test: NCI Yeast Anticancer Drug Screen. Data for the mlh1 rad18 strain (AID 175); settings: S. cerevisiae mlh1 rad18 strain growth inhibition; at 50.0 µM; hits give high values
The panel holds about 79,000 compounds, 15% with a hit somewhere; the sample as a whole holds those more often.
Category | rule: reported growth inhibition within range, see lower level (below 30%), middle level (30% to below 90%), upper level (90% or more)

[[record]]
molecule = "COC(=O)C1CCC(c2ccccc2)CC1C(=O)OC (stereo unspecified)"
category = "lower level"

[[record]]
molecule = "CC[N+]1(C)CCC(O)(/C=C/c2ccccc2)C(C(=O)/C=C/c2ccccc2)C1 (stereo unspecified)"
category = "upper level"

[[record]]
molecule = "COC(=O)c1[nH]c(=O)c(C#N)c(C(=O)OC)c1C(=O)c1ccc2ccccc2c1"
category = "middle level"

[[record]]
molecule = "Cc1cc(-c2ccccc2)nc2nc3ccccc3n12"
category = "middle level"

[[record]]
molecule = "COc1ccc(C2=C(Cl)C(=O)N(c3ccc(OC)cc3OC)C(=O)C2(Cl)Cl)cc1"
category = "middle level"

[[record]]
molecule = "CN(C)c1ccc(C(c2cc3c(cc2O)OCO3)N2CCCCC2)cc1 (stereo unspecified)"
category = "upper level"

[[record]]
molecule = "CC(C)c1ccc2nc3ccc(C(=O)NCCN4CCN(c5ccccc5)CC4)cn3c(=O)c2c1"
category = "lower level"

[[record]]
molecule = "CC([N+](=O)[O-])C1(O)C(=O)c2cccc3cccc1c23 (stereo unspecified)"
category = "middle level"

[[record]]
molecule = "COc1ccc(CN=C(N)N)c2ccccc12"
category = "lower level"

